Reference source for all entries: patent US20260034094A1

target: human recombinant GCL (Homo sapiens (Human)); assay: GCL enzyme profiling assay (ADP-Glo luminescence); type: biochemical; conditions: human recombinant GCL, ADP-Glo; read-out: GCL IC50
Sequence (P48506 whole entry): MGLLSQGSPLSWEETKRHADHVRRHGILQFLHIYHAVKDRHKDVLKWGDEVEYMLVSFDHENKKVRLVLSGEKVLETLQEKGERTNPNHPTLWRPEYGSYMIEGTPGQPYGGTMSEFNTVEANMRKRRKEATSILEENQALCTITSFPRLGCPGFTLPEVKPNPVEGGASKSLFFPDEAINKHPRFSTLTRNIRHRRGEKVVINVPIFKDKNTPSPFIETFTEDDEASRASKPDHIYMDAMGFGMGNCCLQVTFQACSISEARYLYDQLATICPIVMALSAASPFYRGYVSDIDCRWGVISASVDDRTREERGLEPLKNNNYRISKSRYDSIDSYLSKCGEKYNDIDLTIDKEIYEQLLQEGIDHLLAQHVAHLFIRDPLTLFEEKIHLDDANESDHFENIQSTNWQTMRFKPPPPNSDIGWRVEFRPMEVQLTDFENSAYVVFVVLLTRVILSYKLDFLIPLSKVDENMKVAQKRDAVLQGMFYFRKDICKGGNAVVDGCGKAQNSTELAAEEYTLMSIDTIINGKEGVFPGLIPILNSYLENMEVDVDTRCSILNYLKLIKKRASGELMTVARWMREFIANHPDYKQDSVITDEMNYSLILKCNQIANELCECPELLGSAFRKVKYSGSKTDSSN
pIC50: −log10 of the molar value.
The entries below are paired with their reported pIC50.

[
  {
    "Compound": "N=[S@@](=O)(CC[C@H](N)C(=O)O)CC[C@](O)(c1ccccc1)C(F)(F)F [Compound 348]",
    "pIC50": "≥ 4.70"
  },
  {
    "Compound": "N[C@@H](CCS(=O)(=O)CCC1(c2ccccn2)CCC1)C(=O)O [compound 390]",
    "pIC50": "< 2.70"
  },
  {
    "Compound": "N=S(=O)(CC[C@H](N)C(=O)O)CCC(O)(c1ccc(C2CCCC2)cn1)C(F)(F)F (some centres unmarked) [Compound 461]",
    "pIC50": "≥ 4.70"
  }
]

Problem: Request the reported pIC50 associated with N=S(=O)(CCC(c1ccc2[nH]ncc2c1)C(F)(F)F)CC[C@H](N)C(=O)O (some centres unmarked) [Compound 386]
Result: ≥ 4.70

Problem: Now consider N#Cc1cc(-c2ccc(C(O)(CCS(=N)(=O)CC[C@H](N)C(=O)O)C(F)(F)F)cc2)ccc1O (some centres unmarked) [Compound 454] .
Result: ≥ 4.70

Problem: Now consider CCOc1cccc(-c2ccc(C(O)(CCS(=N)(=O)CC[C@H](N)C(=O)O)C(F)(F)F)cc2)c1 (some centres unmarked) [Compound 451] .
Result: ≥ 4.70

Problem: Now consider N=S(=O)(CC[C@H](N)C(=O)O)CCC(O)(C1CCC1)C(F)(F)F (some centres unmarked) [Compound 357] .
Result: ≥ 4.70

Problem: Now consider N=S(=O)(CC[C@H](N)C(=O)O)CCC1(c2ccc3[nH]cnc3c2)CCC1 (some centres unmarked) [Compound 396] .
Result: 2.70 to 4.70
